Source: patent US20210122730A1

Biological target: CYP2C8 (Homo sapiens, UniProt P10632)
Construct: Pooled human microsomes were obtained from Sekisui XenoTech, KS; tissue Sekisui XenoTech, KS; host or cells: pooled human liver microsomes
Sequence (P10632 1-490): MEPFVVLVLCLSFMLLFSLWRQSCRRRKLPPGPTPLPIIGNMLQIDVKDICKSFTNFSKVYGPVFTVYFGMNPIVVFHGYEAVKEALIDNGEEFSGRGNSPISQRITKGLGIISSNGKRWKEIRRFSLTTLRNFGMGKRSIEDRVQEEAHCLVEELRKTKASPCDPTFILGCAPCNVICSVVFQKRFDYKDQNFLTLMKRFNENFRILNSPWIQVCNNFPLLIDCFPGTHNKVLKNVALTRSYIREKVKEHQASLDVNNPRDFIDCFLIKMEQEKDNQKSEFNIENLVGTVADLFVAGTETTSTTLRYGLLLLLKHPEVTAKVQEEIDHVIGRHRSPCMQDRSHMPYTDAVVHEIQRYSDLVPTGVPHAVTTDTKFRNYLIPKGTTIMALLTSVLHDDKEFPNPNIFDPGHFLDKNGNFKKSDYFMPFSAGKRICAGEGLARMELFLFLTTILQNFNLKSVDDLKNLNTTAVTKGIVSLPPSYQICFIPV
Assay: CYP Inhibition Assay (CYP2C8, human liver microsomes, paclitaxel substrate)
Assay type: in vitro ADME
Conditions: pH 7.4; pooled human liver microsomes 0.1 mg/mL, probe substrate paclitaxel
Quantity name: inhibition at 5 min

Please review the following examples before continuing.
>  <Compound>
Cn1cc(S(=O)(=O)C[C@H]2CCC3=Cc4c(cnn4-c4ccc(F)cc4)C[C@]3(C(=O)c3cc(C(F)(F)F)ccn3)C2)cn1 (single isomer, unassigned)

>  <Target desc>
CYP2C8 (Homo sapiens, UniProt P10632)

>  <inhibition at 5 min>
≤ 25%

$$$$
>  <Compound>
Cn1ncc(S(=O)(=O)N(C2CC2)[C@H]2CCC3=Cc4c(cnn4-c4ccc(F)cc4)C[C@]3(C(=O)c3cc(F)ccn3)C2)n1

>  <Target desc>
CYP2C8 (Homo sapiens, UniProt P10632)

>  <inhibition at 5 min>
75 to 90%

$$$$
>  <Compound>
Cn1ccc(S(=O)(=O)N(CC2CC2)[C@H]2CCC3=Cc4c(cnn4-c4ccc(F)cc4)C[C@]3(C(=O)c3cc(F)ccn3)C2)n1

>  <Target desc>
CYP2C8 (Homo sapiens, UniProt P10632)

>  <inhibition at 5 min>
75 to 90%

$$$$

Request body: readout inhibition at 5 min, system CYP2C8 (Homo sapiens, UniProt P10632), query Cn1ccc(S(=O)(=O)N(C2CC2)[C@H]2CCC3=Cc4c(cnn4-c4ccc(F)cc4)C[C@]3(C(=O)c3ncc(Cl)cn3)C2)n1 . Return the value.
25 to 50%

# iterate: CO[C@]1(C)C[C@H](N([C@H]2CCC3=Cc4c(cnn4-c4ccc(F)cc4)C[C@]3(C(=O)c3cc(F)ccn3)C2)S(=O)(=O)c2ccn(C)n2)C1
25 to 50%

Moving on to O=C(c1ccc(C(F)(F)F)cn1)[C@]12Cc3cnn(-c4ccc(F)cc4)c3C=C1CC[C@H](S(=O)(=O)c1ccn(C3CC3)n1)C2
≤ 25%
